- System: SK-OV-3 ovarian
- assayInfo: NCI-60 one-dose screen, 48 h (100 = growth as untreated, 0 = no growth, -100 = all killed)
- conditionContext: 10 µM unless noted
The panel holds about 83,000 compounds, 20% with a hit somewhere; the sample as a whole holds those more often. Active and inactive are the calls of the source. How the source made its calls: active means growth percent below 10; inactive means the rest.
# growth annotations

Check out these entries, answers already filled in.
[[record]]
compound = "N#Cc1ccc2nc[nH]c2c1"
targetdesc = "SK-OV-3 ovarian"
observationtype = "growth"
resultvalue = "109% (inactive)"

[[record]]
compound = "C=C(c1ccc(N(C)C)cc1)c1ccc(N(C)C)cc1"
targetdesc = "SK-OV-3 ovarian"
observationtype = "growth"
resultvalue = "27.4% (inactive)"

[[record]]
compound = "O=C(O)C1CCCN1C(=O)OCc1ccccc1 (centres undefined)"
targetdesc = "SK-OV-3 ovarian"
observationtype = "growth"
resultvalue = "102% (inactive)"


Enter recorded growth with SK-OV-3 ovarian for CC(=O)NNC(=S)N/C=C/c1c(C)ccc([N+](=O)[O-])c1[N+](=O)[O-] here. 105% (inactive)

Enter recorded growth with SK-OV-3 ovarian for Cc1ccc(N)c(S(=O)(=O)O)c1 here. 103% (inactive)

Enter recorded growth with SK-OV-3 ovarian for O=C(NC1CCCCC1)c1ccc(Cl)cc1 here. 114% (inactive)

Enter recorded growth with SK-OV-3 ovarian for CCC12OC(COc3ccccc3)CN1CCN2c1ccccc1 (centres undefined) here. 106% [100 µM] (inactive)

Enter recorded growth with SK-OV-3 ovarian for COc1ccc2c(c1)Nc1ccccc1S2 here. 111% (inactive)

Enter recorded growth with SK-OV-3 ovarian for COC(=O)C1(CC(C)=O)NC(=S)NC(=O)C1C#N (centres undefined) here. 117% (inactive)

---

- System: SNB-75 CNS
- assayInfo: NCI-60 one-dose screen, 48 h (100 = growth as untreated, 0 = no growth, -100 = all killed)
- conditionContext: 10 µM unless noted
The panel holds about 83,000 compounds, 20% with a hit somewhere; the sample as a whole holds those more often.
Label rule, in plain words: growth of 80% and up is TRUE, under 80% is FALSE.

Below, 3 compounds whose answers are already recorded.
[[record]]
samplesmiles = "O=C(Nc1ccc([N+](=O)[O-])cc1)C(=O)Nc1ccc([N+](=O)[O-])cc1"
label = "TRUE"

[[record]]
samplesmiles = "Nc1nnc2cc(F)ccc2n1"
label = "FALSE"

[[record]]
samplesmiles = "Cc1ccc2nc(-c3ccc(N=Cc4ccccc4O)cc3)sc2c1"
label = "FALSE"


Now turn to the next compound.
Could you verify whether the entry C=C1SC(=Nc2c(C)cccc2C)N(c2nc(Cl)nc(Cl)n2)C12CCCCC2 shows growth of no less than 80%? TRUE

---

- Tested on: OVCAR-4 ovarian
- assayInfo: NCI-60 one-dose screen, 48 h (100 = growth as untreated, 0 = no growth, -100 = all killed)
- conditionContext: 10 µM unless noted
The panel holds about 83,000 compounds, 20% with a hit somewhere; the sample as a whole holds those more often. Active and inactive are the calls of the source. The calls were made as follows: active = growth percent below 10; inactive = the rest.
observationType: growth

Check out these entries, answers already filled in.
[[record]]
compound = "C1CCc2onc(-c3noc4c3CCCCC4)c2CC1"
targetdesc = "OVCAR-4 ovarian"
observationtype = "growth"
resultvalue = "109% (inactive)"

[[record]]
compound = "NCCCN1CCCC1=O"
targetdesc = "OVCAR-4 ovarian"
observationtype = "growth"
resultvalue = "111% (inactive)"

[[record]]
compound = "CCOC(=N)CC(=O)Nc1cccc(C)c1Cl"
targetdesc = "OVCAR-4 ovarian"
observationtype = "growth"
resultvalue = "106% (inactive)"


Give reported growth value for CC(=O)c1ccc(C)cc1 112% (inactive)

Give reported growth value for Cc1ccc(NCN2C(=O)c3ccccc3C2=O)c(C)n1 119% (inactive)

Give reported growth value for NNc1ncnc2nc[nH]c12 44.6% (inactive)

---

- System: M14 melanoma
- assayInfo: NCI-60 one-dose screen, 48 h
- conditionContext: 10 µM unless noted
This is part of a sample that, as a whole, favours compounds with a hit. Of some 83,000 tested, about 20% had one in any assay. Calls of active or inactive are those of the source. The calls were made as follows: active = growth percent below 10; inactive = the rest.
Give one outcome, nothing more. List: active, inactive

Below, 5 compounds whose answers are already recorded.
[[record]]
compound = "O=Cc1ccc(Cl)c(Cl)c1"
label = "inactive"

[[record]]
compound = "O=C1C=C(c2ccccc2)C(O)(c2ccccc2)C1 (centres undefined)"
label = "inactive"

[[record]]
compound = "O=C(O)c1cc(I)ccc1O"
label = "inactive"

[[record]]
compound = "Nc1ncnc2c1ncn2C1OC(CO)C2OC21 (centres undefined)"
label = "inactive"

[[record]]
compound = "c1ccc(Nc2ccccn2)nc1"
label = "inactive"


How did this test come out for O=C(O)Cc1ccc(Cl)cc1 ? inactive

How did this test come out for O=C1C=C[C@H](O)[C@@]2(CO)O[C@@H]12 ? inactive

How did this test come out for NC(=S)N/N=C/c1ccc(OC(=O)COc2ccccc2)cn1 ? inactive

How did this test come out for CC(C)(C)CC1(C)NC(=O)NC1=O (centres undefined) ? inactive

How did this test come out for O=C1NC(=O)/C(=C\c2ccncc2)N1 ? inactive

How did this test come out for S=C(Sc1ccc(Cl)cc1)Sc1ccc(Cl)cc1 ? active

---

- Tested on: HCT-15 colon
- assayInfo: NCI-60 one-dose screen, 48 h
- conditionContext: 10 µM unless noted
The panel holds about 83,000 compounds, 20% with a hit somewhere; the sample as a whole holds those more often. Active and inactive are the calls of the source. How the source made its calls: active means growth percent below 10; inactive means the rest.
Give one outcome, nothing more. List: YES = active, NO = inactive

[[record]]
molecule = "CCCCCCCCCCC(=O)CCCCCCCCCC"
label = "NO"

[[record]]
molecule = "CN1C(=O)NC(c2ccc(Cl)cc2)(c2ccc(Cl)cc2)C1=O"
label = "NO"


How did this test come out for CN(C)c1ccc(O)c2c1CC1CC3C(N(C)C)C(=O)C(C(N)=O)=C(O)C3(O)C(=O)C1=C2O (stereo not given) ? NO

How did this test come out for OCCOc1ccc(-c2cc(-c3ccccn3)nc(-c3ccccn3)c2)cc1 ? NO

How did this test come out for NC(=S)N/N=C/c1ccc(OC(=O)COc2ccccc2)cn1 ? NO

How did this test come out for Clc1ccc(C(SCc2ccccc2)SCc2ccccc2)cc1 ? NO

How did this test come out for CCCCCC(=O)OCCC1CCCCC1 ? NO

How did this test come out for COc1ccc(C(=O)C(=O)c2ccccc2)cc1 ? NO

How did this test come out for c1ccc2c(NCCCN3CCN(CCCNc4c5ccccc5nc5ccccc45)CC3)c3ccccc3nc2c1 ? YES

How did this test come out for CCCC(=O)CC(=O)c1ccccc1 ? NO

How did this test come out for NNC(=O)CCCCl ? NO

How did this test come out for Nc1c(O)c(S(=O)(=O)O)c(O)c2c1C(=O)c1ccccc1C2=O ? NO

How did this test come out for O=C(NCc1ccco1)Nc1cccc2c(NC(=O)NCc3ccco3)cccc12 ? NO

How did this test come out for FC(F)(F)c1cc(NC2=NCCN=C(Nc3cc(C(F)(F)F)cc(C(F)(F)F)c3)SS2)cc(C(F)(F)F)c1 ? NO

How did this test come out for O=C(c1ccccc1O)N1CCCC1 ? NO

How did this test come out for OC(CBr)CCBr (stereo not given) ? NO

How did this test come out for CC(c1ccccc1)N1C(=O)CSC1=S (stereo not given) ? YES

How did this test come out for CCN1CCCC(N2c3ccccc3Sc3ccccc32)C1 (stereo not given) ? NO

How did this test come out for CCOC(=O)/C(C#N)=C\c1c[nH]c2ccccc12 ? NO

How did this test come out for C=CC(=O)OC1CCC(C(C)(C)CC)CC1 (stereo not given) ? NO

How did this test come out for Cc1ccc(NC(=S)N2CCOCC2)cc1C ? NO

How did this test come out for Clc1ccc(-c2noc(/C=C\c3ccccc3)n2)cc1 ? NO

How did this test come out for O=c1n(CC2CO2)c(=O)n(CC2CO2)n1CC1CO1 (stereo not given) ? NO

How did this test come out for CCC(/C=C\C(C)=O)CC ? NO

How did this test come out for Cc1ccc(C)c2c1CCC2=O ? NO

---

- Tested on: UO-31 renal
- assayInfo: NCI-60 one-dose screen, 48 h (100 = growth as untreated, 0 = no growth, -100 = all killed)
- conditionContext: 10 µM unless noted
About 83,000 compounds went through this panel and 20% of them were active in at least one assay; those are over-represented in the sample as a whole.
Binning scheme for growth: low end: < 80%; middle: ≥ 80% and < 90%; high end: ≥ 90%

Below, 5 molecules whose answers are already recorded.
[[record]]
samplesmiles = "CC(C)N(CCCC#N)C(C)C"
label = "middle"

[[record]]
samplesmiles = "S=C=Nc1ccc2ccccc2c1"
label = "middle"

[[record]]
samplesmiles = "O=C(OCc1ccccc1)n1nnc2ccccc21"
label = "high end"

[[record]]
samplesmiles = "CC(=O)Nc1ccc(C(=O)c2ccc(S(=O)(=O)Nc3ccccc3)cc2)cc1"
label = "middle"

[[record]]
samplesmiles = "CCCC(=O)c1cccs1"
label = "high end"


Band of CC1=CC(=Nc2ccc(N(C)C)cc2)C=C(C)C1=O ? low end

Band of CCC(=O)C1C(=O)c2ccccc2C1=O ? low end

Band of c1ccc2[nH]c(Cc3nc4ccccc4[nH]3)nc2c1 ? high end
